# Assay Remarks: Bioassay: distribution of I-123-labeled compounds in organs of rats after tail vein injection (percent dose/gram, brain/blood ratio)
# Format: in vivo, Female Sprague-Dawley rats
# Condition Parameters: rat, iv, heart, 60 minutes post-injection, 0.05 to 1.0 mCi, two rats, read-out: Percent Dose/Gram Heart 60 min.
Items are presented alongside their recorded tissue uptake at 1 h.

# Molecule, tissue uptake at 1 h [%ID/g]
measured = [
    ("CC(C)NCc1cccc([123I])c1 [I--123-N--isopropyl-m-iodobenzylamine]", 0.46),
    ("CC(C)N(Cc1ccccc1[123I])C(C)C", 0.46),
    ("[123I]c1ccccc1NCc1ccccc1 [I--123-N--benzyl-o-iodoaniline]", 1.25),
    ("C[C@H](N)Cc1ccc([123I])cc1 [I--123-S--p-iodoamphetamine, I-123-S-p-iodoamphetamine]", 0.86),
    ("CC(Cc1ccccc1)NCCc1ccccc1[123I] (racemic)", 0.48),
    ("[123I]c1ccccc1CN1CCCCC1 [I--123-N--o-iodobenzylpiperidine]", 0.38),
    ("CC(C)(C)NCc1ccccc1[123I] [I--123-N--t-butyl-o-iodobenzylamine, I-123-N-t-butyl-o-iodobenzylamine]", 0.49),
    ("CC(Cc1ccccc1)NCc1ccccc1[123I] (racemic) [I--123-N--o-iodobenzylamphetamine (dl)]", 0.37),
    ("CC1CCCC(C)N1Cc1ccccc1[123I] (stereo not drawn)", 0.44),
]
